Biological target: Nicotinamide N-methyltransferase (Homo sapiens) (UniProt P40261)
Sequence (P40261 whole entry, looked up): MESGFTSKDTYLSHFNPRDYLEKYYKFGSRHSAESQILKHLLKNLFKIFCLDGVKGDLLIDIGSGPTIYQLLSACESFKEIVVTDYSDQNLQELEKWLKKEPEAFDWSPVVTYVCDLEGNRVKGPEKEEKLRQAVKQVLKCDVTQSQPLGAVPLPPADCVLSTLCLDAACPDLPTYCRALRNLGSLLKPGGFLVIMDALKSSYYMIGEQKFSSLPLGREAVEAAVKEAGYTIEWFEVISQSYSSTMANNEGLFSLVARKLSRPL
Assay: Confirmatory Screen for Target Class Profiling of Small Molecule Inhibitors of Methyltransferases (AID 1745852)
Conditions: MTase-Glo luminescence, SAH detection, recombinant enzyme; measured here: NNMT max response; stronger effect = lower value
REPORTED METRIC: activity (%)
Form entry: value (%) — number only.

CC1(C)[C@H](Cc2cc(-c3ccccc3)on2)C[C@@H]1NCC1CC1 :: -6.44
Cc1ccc(CNC(=O)c2ccc3c(=O)[nH]c4c(C(=O)NC(C)C)sc(=S)n4c3c2)cc1 :: -65.3
O=C(CC1CCCC1)N1CCC(Nc2cccnc2)C1 (stereo not given) :: -14.6
CC(C)Cn1c(=O)c2ccccc2n2c(CCC(=O)Nc3ccc(F)c(F)c3)nnc12 :: -38.2

Now consider a different molecule.
Problem: Can you look up the measured activity of OCC1(Cc2ccccc2)CCCN(Cc2cn[nH]c2-c2ccc(F)cc2)C1 (stereo not given) for me?
Result: 0.855
